Experiment: Selectivity index, ratio of CC50 for human Huh7.5 cells to EC50 for antiviral activity against HCV genotype 2a JFH/JC1 infected in human Huh7.5 cells
Format: toxicity, cell-based
Details: read-out: Ratio CC50/EC50
Could you please report measured selectivity ratio for the items listed next?
Answers are plain numbers.

Some solved cases for reference:
1) CCC[C@H](NC(=O)[C@@H]1[C@H]2CCC[C@H]2CN1C(=O)[C@@H](NC(=O)[C@@H](NC(=O)c1cnccn1)C1CCCCC1)C(C)(C)C)C(=O)C(=O)NC1CC1 ... 491
2) CC(=O)[C@@H]1C[C@H](C(=O)O)[C@@]1(C)CC/C=C(\C)C(=O)O ... 3

Switching to the query record.
Input C/C(=C\CC[C@]1(C)[C@@H](C(=O)O)C[C@H]1[C@](C)(O)C(=O)O)C(=O)O . Output selectivity ratio: 4
